biological target: GDP-loaded KRAS G12D (Homo sapiens (Human), UniProt P01116, G12D); test: KRAS G12D (GDP) biochemical assay (TR-FRET probe displacement); settings: 2 hours
Sequence (P01116-2 other isoform, or with tags, fused parts or gaps G12D): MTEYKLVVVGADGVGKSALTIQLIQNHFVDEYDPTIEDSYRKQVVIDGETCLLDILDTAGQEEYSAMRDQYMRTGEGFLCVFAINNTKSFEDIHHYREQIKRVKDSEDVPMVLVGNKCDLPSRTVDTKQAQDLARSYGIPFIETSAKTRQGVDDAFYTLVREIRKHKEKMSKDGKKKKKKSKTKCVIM
Attribute Measured: IC50 (nM)
# output: bare number, implied unit nM

Below, 3 molecules whose answers are already recorded.
C#Cc1c(F)ccc2cc(O)cc(-c3nc4c5c(nc(OC[C@@]67CCCN6[C@H](COc6cccc(S(F)(F)(F)(F)F)c6)CC7)nc5c3F)N3C[C@H]5CC[C@H](N5)[C@H]3CC4)c12 | 0.8
C#Cc1c(F)ccc2cccc(-c3nc4c5c(nc(OC[C@@]67CCCN6[C@H](COCC(F)(F)F)CC7)nc5c3F)N3C[C@H]5CC[C@H](N5)[C@H]3CC4)c12 | 0.3
C#Cc1c(F)ccc2cccc(-c3nc4c5c(nc(OC[C@@]67CCCN6[C@H](COC(C)(C(F)(F)F)C(F)(F)F)CC7)nc5c3F)N3C[C@H]5CC[C@H](N5)[C@H]3CCC4)c12 | 0.1

Turning to the following molecule.
Exam item: Value lookup for IC50; key = C#Cc1c(F)ccc2cccc(-c3nc4c5c(nc(OC[C@@]67CCCN6C[C@H](F)C7)nc5c3F)N3C[C@H]5CC[C@H](N5)[C@@H]3[C@H](C)CC4)c12
Marked response: 100
